protocol_description: in vivo
Set-up: species or system mice
cond: male, NODSCID 1L2RγKO, mouse, iv, total radioactivity, Stomach uptake
Note to self: use satisfied only for tissue uptake at 4 h readings below 0.5 %ID/g; a reading exactly at 0.5 %ID/g still gets not satisfied.

Answered examples (3):
| molecule | category_label |
| --- | --- |
| COc1ccc(CCCC(=O)NCC(=O)N[C@@H](CCCCNC(=O)CN2CCN(CC(=O)O)CCN(CC(=O)O)CCN(CC(=O)O)CC2)C(=O)NC[C@H]2CC[C@H](C(=O)N[C@@H](Cc3c4ccccc4cc4ccccc34)C(=O)NCCCC[C@H](NC(=O)N[C@@H](COCC(=O)O)C(=O)O)C(=O)O)CC2)cc1 [177Lu-HTK04028, metal not drawn] | satisfied |
| COc1ccc(CCCC(=O)NCC(=O)N[C@@H](CCCCNC(=O)CN2CCN(CC(=O)O)CCN(CC(=O)O)CCN(CC(=O)O)CC2)C(=O)NC[C@H]2CC[C@H](C(=O)N[C@@H](Cc3c4ccccc4cc4ccccc34)C(=O)NCCCC[C@H](NC(=O)N[C@@H](CSCC(=O)O)C(=O)O)C(=O)O)CC2)cc1 [177Lu-HTK04048, metal not drawn] | not satisfied |
| O=C(O)CCC[C@H](NC(=O)N[C@@H](CCCCNC(=O)[C@H](Cc1c2ccccc2cc2ccccc12)NC(=O)[C@H]1CC[C@H](CNC(=O)[C@H](CCCCNC(=O)CN2CCN(CC(=O)O)CCN(CC(=O)O)CCN(CC(=O)O)CC2)NC(=O)CNC(=O)CCCc2ccc(Cl)cc2)CC1)C(=O)O)C(=O)O [177Lu-HTK03153, metal not drawn] | not satisfied |

Ask | Hello, I'm reviewing records and need to know if tissue uptake at 4 h of COc1ccc(CCCC(=O)NCC(=O)N[C@@H](CCCCNC(=O)CN2CCN(CC(=O)O)CCN(CC(=O)O)CCN(CC(=O)O)CC2)C(=O)NC[C@H]2CC[C@H](C(=O)N[C@@H](Cc3c4ccccc4cc4ccccc34)C(=O)NCCCC[C@H](NC(=O)N[C@@H](CCCC(=O)O)C(=O)O)C(=O)O)CC2)cc1 [177Lu-HTK03170, metal not drawn] is below 0.5 %ID/g. Could you check?
Reply | satisfied

Ask | Hello, I'm reviewing records and need to know if tissue uptake at 4 h of O=C(O)CCC[C@H](NC(=O)N[C@@H](CCCCNC(=O)[C@H](Cc1c2ccccc2cc2ccccc12)NC(=O)[C@H]1CC[C@H](CNC(=O)CN2CCN(CC(=O)O)CCN(CC(=O)O)CCN(CC(=O)O)CC2)CC1)C(=O)O)C(=O)O [177Lu-HTK03149, metal not drawn] is below 0.5 %ID/g. Could you check?
Reply | satisfied
